Tgt: 5-lipoxygenase (Rattus norvegicus, UniProt P12527)
Construct: supernatant fraction of Rat Basophilic Leukemia Cell Homogenate (RBL-1) serves as a 5-lipoxygenase enzyme source; endogenous in cells
Sequence (P12527 whole entry): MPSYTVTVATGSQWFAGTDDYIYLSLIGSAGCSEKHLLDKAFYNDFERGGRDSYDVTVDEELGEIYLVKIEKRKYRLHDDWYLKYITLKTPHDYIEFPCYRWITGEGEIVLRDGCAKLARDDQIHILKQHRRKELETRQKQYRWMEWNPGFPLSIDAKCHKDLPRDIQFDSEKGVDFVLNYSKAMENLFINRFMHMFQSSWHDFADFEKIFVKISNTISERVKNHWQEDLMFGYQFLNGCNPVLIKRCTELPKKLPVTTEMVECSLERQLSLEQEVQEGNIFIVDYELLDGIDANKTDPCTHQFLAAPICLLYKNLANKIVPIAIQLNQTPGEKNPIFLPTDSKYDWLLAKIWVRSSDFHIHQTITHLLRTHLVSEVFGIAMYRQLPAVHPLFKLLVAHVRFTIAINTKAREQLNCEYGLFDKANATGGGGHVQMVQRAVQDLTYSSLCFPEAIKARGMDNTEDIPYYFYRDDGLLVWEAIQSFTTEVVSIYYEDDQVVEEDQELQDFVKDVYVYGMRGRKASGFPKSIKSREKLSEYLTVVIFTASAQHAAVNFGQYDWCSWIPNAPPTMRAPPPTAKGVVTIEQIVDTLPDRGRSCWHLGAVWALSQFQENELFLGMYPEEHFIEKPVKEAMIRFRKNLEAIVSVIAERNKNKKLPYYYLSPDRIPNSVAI
Test Description: Inhibition of 5-lipoxygenase, in vitro
Run Parameters: 100,000×g supernatant of RBL-1 homogenate, 14C-arachidonic acid, 5-HETE measured
Quantity Kind: pIC50
Formally, pIC50 is defined as -log10 of the concentration c, with c in mol/L.

Worked cases, pIC50 given:
> print(dat)
                                   compound  quantity.kind  value
1  CC(C)(C)c1cc(SCCSCC(=O)O)cc(C(C)(C)C)c1O [Example 4]          pIC50   5.85
2  COC(=O)CSC(C)C(C)Sc1cc(C(C)(C)C)c(O)c(C(C)(C)C)c1 (stereo not drawn)          pIC50   6.62
3  CC(C)(C)c1cc(SCCSCC(=O)O)cc(C(C)(C)C)c1O [Example 6]          pIC50   5.74

Incoming: Item CC(C)(C)c1cc(SCCSCCC(=O)O)cc(C(C)(C)C)c1O : provide pIC50
Outgoing: 6.00

Incoming: Item CCOC(=O)C[S+]([O-])CCSc1cc(C(C)(C)C)c(O)c(C(C)(C)C)c1 (stereo not drawn) : provide pIC50
Outgoing: 6.48

Incoming: Item O=C(O)CSCCSc1ccc(O)cc1 [Example 37, reference compound] : provide pIC50
Outgoing: 4.26

Incoming: Item CC(C)(C)c1cc(SCCOCC(=O)O)cc(C(C)(C)C)c1O : provide pIC50
Outgoing: 5.14

Incoming: Item COC(=O)CSCC(O)CSc1cc(C(C)(C)C)c(O)c(C(C)(C)C)c1 (stereo not drawn) : provide pIC50
Outgoing: 6.51

====

Test system: OA-induced bronchoconstriction in the Guinea Pig
Test Description: In vivo inhibition of ovalbumin-induced bronchoconstriction - Anti-allergy assay
Run Parameters: i.g. @ 3 hr., vehicle 2 (peanut oil)
Quantity Kind: Antagonism of OA-induced bronchoconstriction in the Guinea Pig (min. effective dose)
Param answer (str): number followed by unit.

> print(dat)
                                   compound                                       tgt     value
1  COC(=O)CSC(C)C(C)Sc1cc(C(C)(C)C)c(O)c(C(C)(C)C)c1 (centres unmarked)  OA-induced bronchoconstriction in the Guinea Pig  32 mg/kg

Incoming: Item O=C(O)CSCCSc1ccc(O)cc1 [Example 37, reference compound] : provide Antagonism of OA-induced bronchoconstriction in the Guinea Pig (min. effective dose)
Outgoing: 100 mg/kg

Incoming: Item CC(C)(C)c1cc(SCCSCC(=O)O)cc(C(C)(C)C)c1O : provide Antagonism of OA-induced bronchoconstriction in the Guinea Pig (min. effective dose)
Outgoing: 100 mg/kg

Incoming: Item CC(SCC(=O)O)C(C)Sc1cc(C(C)(C)C)c(O)c(C(C)(C)C)c1 (centres unmarked) : provide Antagonism of OA-induced bronchoconstriction in the Guinea Pig (min. effective dose)
Outgoing: 32 mg/kg

Incoming: Item Cc1cc(SCCSCC(=O)O)ccc1O [Example 34, reference compound] : provide Antagonism of OA-induced bronchoconstriction in the Guinea Pig (min. effective dose)
Outgoing: 100 mg/kg
